B1: VTI1B (parent)
chain: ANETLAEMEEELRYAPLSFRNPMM

- Variants of: B1
- RUN_DESCRIPTION: protein stability index of a GFP-peptide fusion (GPS, HEK-293T) (PSI 1-6); higher = more stable;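 note: lentivirally expressed fusions sorted by FACS into six bins by GFP to DsRed ratio, PSI derived from sequencing read proportions per bin multiplied by bin number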
- RECORDED_CONDITIONS: c terminus: a fixed tail appended
Binned protein stability index; ranges: LOW (below 2), MID (2 to below 3), HIGH (3 or more)

A6G: MID
P22G: HIGH
A15N: MID

### Prompt Pick a category. Item: E3M
### Response MID

### Prompt Which band does E3Y fall in?
### Response LOW

### Prompt Input N2L ; output its category
### Response MID

### Prompt Into which bin does this variant go? A15D
### Response HIGH

### Prompt Dear colleague, I would appreciate it if you could identify the bin for R20E and reply at your convenience.
### Response MID

### Prompt In plain terms, what class is F19W ?
### Response HIGH

### Prompt # bin lookup: classify Y14S by its protein stability index
### Response LOW

### Prompt Field: class (protein stability index) — entry: A15H
### Response LOW

### Prompt // bin(item) where item = A6E
### Response MID

### Prompt Which protein stability index band matches N2P ?
### Response MID

### Prompt Band assignment needed for Y14P please.
### Response MID

### Prompt Form: Item = M24R ; Class = ?
### Response HIGH

### Prompt Place this variant in its band: P22T
### Response HIGH

### Prompt Please indicate the class for L12D based on its protein stability index.
### Response HIGH

### Prompt Consider A1C . To which protein stability index class does it belong?
### Response MID

### Prompt Bin this entry: E11I
### Response MID

### Prompt Band for E7G ?
### Response LOW
